The entries below come with measured mitochondrial superoxide values attached.
Tested on: iBMDM (immortalised mouse bone-marrow-derived macrophages), LPS-stimulated
test-protocol: mitochondrial superoxide (MitoSOX fluorescence) fold increase over unstimulated control; higher = more LPS-induced mitochondrial ROS (less inhibition)
condition-details: inhibitor concentration: 500 nM; LPS: 100 ng/ml; time after LPS: 2 h
measured-metric: mitochondrial superoxide

- compound: "COc1cc2c(Nc3ccc(NC(=O)c4ccccc4)cc3)ncnc2cc1OCCCN1CCOCC1"
  observed-measurement: 1.44
- compound: "Cn1cc(-c2[nH]c3cc(NC(=O)[C@H](N)C4CCCCC4)cc4c3c2C=NNC4=O)cn1"
  observed-measurement: 1.15
- compound: "Oc1ccc2ccccc2c1SSc1c(O)ccc2ccccc12"
  observed-measurement: 1.22
- compound: "C[C@]1(O)C[C@@H](c2nc(-c3ccc4ccc(-c5ccccc5)nc4c3)c3c(N)nccn32)C1 [OSI-906 (Linsitinib)]"
  observed-measurement: 1.51
- compound: "COc1cc2ncnc(Nc3cccc(Cl)c3)c2cc1OC [AG-1478 (Tyrphostin AG-1478)]"
  observed-measurement: 1.54
- compound: "Cc1cc(F)c(Nc2ncnc3cc(OCc4ccccc4)ccc23)cc1O"
  observed-measurement: 1.11
- compound: "CN(C)Cc1cccc(N=C(c2ccccc2)c2c(O)[nH]c3cc(C(N)=O)ccc23)c1"
  observed-measurement: 1.15
- compound: "CNC(=O)c1ccc(-c2cnc3ncc(Cc4ccc5ncccc5c4)n3n2)cc1F"
  observed-measurement: 1.36
- compound: "O=c1c(-c2ccc(O)cc2)coc2cc(O)cc(O)c12 [Genistein]"
  observed-measurement: 1.29
- compound: "FC(F)c1nc2ccccc2n1-c1nc(N2CCOCC2)nc(N2CCOCC2)n1"
  observed-measurement: 1.71
- compound: "COc1ccc(-c2nc(N3CCOCC3)c3sc(CN(C)c4ncc(C(=O)NO)cn4)cc3n2)cn1"
  observed-measurement: 1.52
- compound: "C#Cc1cccc(Nc2ncnc3cc(OCCOC)c(OCCO)cc23)c1"
  observed-measurement: 1.2
- compound: "CN(C)c1ccc(-c2nc3ncc(Cl)c(N4CCN(CC(=O)Nc5nccs5)CC4)c3[nH]2)cc1"
  observed-measurement: 1.28
- compound: "Cc1cc(Nc2ncc(Cl)c(Nc3ccccc3S(=O)(=O)C(C)C)n2)c(OC(C)C)cc1C1CCNCC1"
  observed-measurement: 1.32
- compound: "O=C1NC(=O)C(c2ccccc2[N+](=O)[O-])=C1Nc1ccc(O)c(Cl)c1"
  observed-measurement: 1.45
- compound: "CC[C@@H]1C(=O)N(C)c2cnc(Nc3ccc(C(=O)N[C@H]4CC[C@H](N5CCN(CC6CC6)CC5)CC4)cc3OC)nc2N1C(C)C [Volasertib (BI 6727)]"
  observed-measurement: 1.27
- compound: "COc1cc2nccc(Oc3ccc(NC(=O)C4(C(=O)Nc5ccc(F)cc5)CC4)cc3)c2cc1OC"
  observed-measurement: 1.43
- compound: "CN1CCN(c2ccc3nc(-c4c(N)c5c(F)cccc5[nH]c4=O)[nH]c3c2)CC1 [Dovitinib (TKI-258) Dilactic Acid]"
  observed-measurement: 1.32

// data source = the supplement of paper PMC7393113
